# TESTED TARGET: Serine/threonine-protein kinase PLK3 (Homo sapiens)
# ASSAY TEXT: Enzymatic radiometric [Km ATP] KinaseProfiler LeadHunter assay, kinase: Plk3, catalogue number: 14-572KP The assay has been performed by Eurofins Discovery.
# CONDITION DESCRIPTION: ATP concentration 70.0 uM, Test compound concentration 10.0 uM
Entries and their Activity values follow.
ASSAY READOUT: Activity (%)

STRUCTURE SMILES | TESTED TARGET | UNIT STRING | VALUE OBSERVED
CNCc1cc(-c2cc3c(N[C@@H](c4ccc5c(c4)S(=O)(=O)CCC5)C(C)C)ncnc3[nH]2)co1 | Serine/threonine-protein kinase PLK3 (Homo sapiens) | % | 124
Cn1ncc(-c2cc3c(N[C@@H](c4ccc5c(n4)OCCO5)C(C)(C)C)ncnc3[nH]2)c1C#N | Serine/threonine-protein kinase PLK3 (Homo sapiens) | % | 77
CC(C)[C@@H](Nc1ncnc2[nH]ccc12)c1ccc2c(c1)S(=O)(=O)CCC2 | Serine/threonine-protein kinase PLK3 (Homo sapiens) | % | 103
COc1ccc([C@@H](Cc2nnn[nH]2)NC(=O)c2ncnc3[nH]ccc23)cc1 | Serine/threonine-protein kinase PLK3 (Homo sapiens) | % | 102
C[C@H](C(=O)O)[C@@H](NC(=O)c1ncnc2[nH]ccc12)c1ccc(Br)cc1 | Serine/threonine-protein kinase PLK3 (Homo sapiens) | % | 98
Cc1nn(C)cc1-c1cc2c(N[C@H](c3ccc4c(c3)S(=O)(=O)CCC4)C(C)C)ncnc2[nH]1 | Serine/threonine-protein kinase PLK3 (Homo sapiens) | % | 104
COc1ccc([C@H](Cc2nnn[nH]2)NC(=O)c2ncnc3[nH]ccc23)cc1 | Serine/threonine-protein kinase PLK3 (Homo sapiens) | % | 102
CC(C)[C@@H](Nc1ncnc2[nH]c(C(=O)N[C@@H]3CCN(C)C3)cc12)c1ccc2c(c1)S(=O)(=O)CCC2 | Serine/threonine-protein kinase PLK3 (Homo sapiens) | % | 98
CNC(=O)Cn1cc(-c2cc3c(N[C@@H](c4ccc5c(c4)S(=O)(=O)CCC5)C(C)C)ncnc3[nH]2)cn1 | Serine/threonine-protein kinase PLK3 (Homo sapiens) | % | 98
CC(C)[C@H](Nc1ncnc2[nH]ccc12)c1ccc2c(c1)S(=O)(=O)CCC2 | Serine/threonine-protein kinase PLK3 (Homo sapiens) | % | 112
CC(C)[C@H](Nc1ncnc2[nH]c(-c3cnn(C)c3C#N)cc12)c1ccc2c(n1)OCCO2 | Serine/threonine-protein kinase PLK3 (Homo sapiens) | % | 102

---

Quick reference for Activity among some compounds
# TESTED TARGET: Aurora kinase A (Homo sapiens) (UniProt O14965)
# Sequence (whole entry): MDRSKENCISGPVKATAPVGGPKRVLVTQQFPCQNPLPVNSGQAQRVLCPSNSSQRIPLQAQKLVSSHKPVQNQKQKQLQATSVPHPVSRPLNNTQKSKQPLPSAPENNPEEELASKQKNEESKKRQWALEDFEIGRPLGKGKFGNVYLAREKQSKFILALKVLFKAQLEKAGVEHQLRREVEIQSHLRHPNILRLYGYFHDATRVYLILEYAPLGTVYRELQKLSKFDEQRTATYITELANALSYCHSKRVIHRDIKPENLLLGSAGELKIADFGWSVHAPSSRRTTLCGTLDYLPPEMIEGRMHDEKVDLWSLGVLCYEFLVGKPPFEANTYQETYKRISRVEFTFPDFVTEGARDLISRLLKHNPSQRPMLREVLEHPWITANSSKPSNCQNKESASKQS
# ASSAY TEXT: Enzymatic radiometric [Km ATP] KinaseProfiler LeadHunter assay, kinase: Aurora-A, catalogue number: 14-511KP The assay has been performed by Eurofins Discovery.
# CONDITION DESCRIPTION: ATP concentration 15.0 uM, Test compound concentration 10.0 uM

STRUCTURE SMILES | Activity, %
CC(C)[C@H](Nc1ncnc2[nH]ccc12)c1ccc2c(c1)S(=O)(=O)CCC2 | 51
Cc1nn(C)cc1-c1cc2c(N[C@H](c3ccc4c(c3)S(=O)(=O)CCC4)C(C)C)ncnc2[nH]1 | 55
COc1ccc([C@@H](Cc2nnn[nH]2)NC(=O)c2ncnc3[nH]ccc23)cc1 | 71
